Value source: patent US11571423B2

Reported pEC50 values follow for various compounds
Tested System: hSTING(R232) (Homo sapiens, UniProt Q86WV6, H232R)
Sequence (Q86WV6 whole entry H232R): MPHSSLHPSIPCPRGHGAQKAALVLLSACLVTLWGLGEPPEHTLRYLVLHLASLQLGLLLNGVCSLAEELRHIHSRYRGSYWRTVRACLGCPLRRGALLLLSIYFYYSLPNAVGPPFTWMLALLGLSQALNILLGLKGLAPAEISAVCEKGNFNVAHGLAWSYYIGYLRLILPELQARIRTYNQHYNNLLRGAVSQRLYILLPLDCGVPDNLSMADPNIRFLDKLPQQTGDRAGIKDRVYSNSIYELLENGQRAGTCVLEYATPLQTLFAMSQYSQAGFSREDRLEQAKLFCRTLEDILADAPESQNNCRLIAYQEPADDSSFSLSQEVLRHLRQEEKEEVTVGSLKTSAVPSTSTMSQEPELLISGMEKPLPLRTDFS
Procedure Text: Luciferase reporter assay in HEK293T-hSTING-Luciferase cells, R232 (wild type) human STING
Format: cell-based
Assay Setup: 20 hr stimulation, read-out: R232 human activity (EC50 range)
pEC50: −log10 of the molar value. Structures can show the parent of a compound that is named as a salt.

# Compound, Tested System, pEC50
data = [
    ("CC1c2ccc(C(=O)NCc3c(F)cc(F)cc3F)cc2N(Cc2cc(F)cc(F)c2)C(=O)N1C (stereo not shown) [Example 152]", "hSTING(R232) (Homo sapiens, UniProt Q86WV6, H232R)", "> 6.00"),
    ("C[C@H]1c2ccc(C(=O)NCc3c(F)cc(F)cc3F)cc2N(Cc2c(F)cc(OCCN)cc2F)C(=O)N1C [Example 292, hydrochloride]", "hSTING(R232) (Homo sapiens, UniProt Q86WV6, H232R)", "> 6.00"),
]

Query: Given the compound CC1c2ccc(C(=O)NCc3c(F)cc(F)cc3F)cc2N(Cc2c(F)cccc2OCC(=O)O)C(=O)N1C (stereo not shown) , what is its reported pEC50?
Response: < 5.00

Query: # get_value(readout='pEC50', item= C[C@H]1c2ccc(C(=O)NCc3c(F)cc(F)cc3F)cc2N(Cc2c(F)ccc(OCCCO)c2Cl)C(=O)N1C )
Response: > 6.00
